Provide the recorded UV Absorption in %, 240 nm for the entries that follow.
- procedure.summary: UV absorption in % at 300, 280 and 240 nm (Table 2)
- Type: physicochemical
- stated.conditions: 240 nm
Quick note: give the figure in %, leave out the unit.

Prompt: UV Absorption in %, 240 nm for Nc1ncnc2c1ncn2[C@@H]1O[C@H](COP(=O)(O)O)[C@@H](O)[C@H]1O [Adenosine-5'-monophosphoric acid-Na2] ?
Response: 80

Prompt: Can you look up the measured UV Absorption in %, 240 nm of O=c1ccn([C@@H]2O[C@H](COP(=O)(O)O)[C@@H](O)[C@H]2O)c(=O)[nH]1 [Uridine-5'-monophosphoric acid-Na2] for me?
Response: 70

Prompt: Tell me the measured UV Absorption in %, 240 nm of Nc1ccc(C(=O)O)cc1 [p-Aminobenzoic acid] , please.
Response: 91

Prompt: Recorded UV Absorption in %, 240 nm for O=c1cc[nH]c(=O)[nH]1 [Uracil] , please?
Response: 90

Prompt: Name the reported UV Absorption in %, 240 nm value associated with the compound Nc1cc(C(=O)O)c(O)c(S(=O)(=O)O)c1 [5-Amino-3-sulfosalicylic acid-Na2]
Response: 87

Prompt: Suppose we examine the compound Nc1cc[nH]c(=O)n1 [Cytosine] ; what UV Absorption in %, 240 nm value has been reported?
Response: 100

Prompt: Please give the measured UV Absorption in %, 240 nm for this compound: Nc1ccccc1C(=O)O [Anthranilic acid(o-Aminobenzoic acid), o-Aminobenzoic acid]
Response: 99

Prompt: Reported UV Absorption in %, 240 nm for Nc1ccc(C(=O)O)c(O)c1 [4-Aminosalicylic acid] : what is it?
Response: 98.5

Prompt: # input compound: O=C(O)c1ccccc1O [Salicylic acid] ; wanted: its UV Absorption in %, 240 nm
Response: 98

Prompt: Look at this compound and give its reported UV Absorption in %, 240 nm. Nc1nc2nc[nH]c2c(=O)[nH]1 [Guanine]
Response: 73

Prompt: UV Absorption in %, 240 nm for Nc1ncnc2nc[nH]c12 [Adenine] ?
Response: 100

Prompt: Looking for the measured UV Absorption in %, 240 nm of Nc1ccn([C@@H]2O[C@H](COP(=O)(O)O)[C@@H](O)[C@H]2O)c(=O)n1 [Cytidine-5'-monophosphoric acid-Na2] , can you help?
Response: 86

Prompt: What value of UV Absorption in %, 240 nm has been recorded for this entry: O=c1[nH]cnc2nc[nH]c12 [Hypoxanthine]
Response: 100
